Target: p110δ/p85α (Homo sapiens (Human), UniProt O00329)
Sequence (O00329 whole entry): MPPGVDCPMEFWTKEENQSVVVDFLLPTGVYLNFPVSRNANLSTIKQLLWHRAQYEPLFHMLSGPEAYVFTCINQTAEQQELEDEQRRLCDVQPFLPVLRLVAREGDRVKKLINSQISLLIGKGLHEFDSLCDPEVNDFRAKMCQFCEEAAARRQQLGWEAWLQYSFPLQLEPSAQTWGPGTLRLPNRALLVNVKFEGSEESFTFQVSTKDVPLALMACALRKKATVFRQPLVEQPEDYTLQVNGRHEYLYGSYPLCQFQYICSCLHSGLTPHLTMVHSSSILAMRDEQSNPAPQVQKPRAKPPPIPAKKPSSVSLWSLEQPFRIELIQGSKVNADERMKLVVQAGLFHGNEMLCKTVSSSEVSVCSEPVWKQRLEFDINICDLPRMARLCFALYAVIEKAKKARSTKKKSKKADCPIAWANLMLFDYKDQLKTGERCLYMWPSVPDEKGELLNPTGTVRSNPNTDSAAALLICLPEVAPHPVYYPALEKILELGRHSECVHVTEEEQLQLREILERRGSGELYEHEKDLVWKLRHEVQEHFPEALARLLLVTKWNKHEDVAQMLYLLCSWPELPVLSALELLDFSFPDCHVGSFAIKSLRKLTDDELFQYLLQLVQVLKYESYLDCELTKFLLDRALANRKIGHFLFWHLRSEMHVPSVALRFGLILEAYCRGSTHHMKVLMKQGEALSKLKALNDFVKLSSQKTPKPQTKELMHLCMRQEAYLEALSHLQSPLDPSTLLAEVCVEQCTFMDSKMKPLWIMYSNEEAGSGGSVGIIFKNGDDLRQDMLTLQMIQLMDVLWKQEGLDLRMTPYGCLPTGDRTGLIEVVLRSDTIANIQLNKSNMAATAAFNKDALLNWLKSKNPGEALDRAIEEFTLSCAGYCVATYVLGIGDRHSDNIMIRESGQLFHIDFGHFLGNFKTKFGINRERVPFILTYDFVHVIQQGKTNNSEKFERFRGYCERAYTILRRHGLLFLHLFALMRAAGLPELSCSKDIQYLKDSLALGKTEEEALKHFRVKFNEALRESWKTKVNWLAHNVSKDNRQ
Sequence (P27986 whole entry partner): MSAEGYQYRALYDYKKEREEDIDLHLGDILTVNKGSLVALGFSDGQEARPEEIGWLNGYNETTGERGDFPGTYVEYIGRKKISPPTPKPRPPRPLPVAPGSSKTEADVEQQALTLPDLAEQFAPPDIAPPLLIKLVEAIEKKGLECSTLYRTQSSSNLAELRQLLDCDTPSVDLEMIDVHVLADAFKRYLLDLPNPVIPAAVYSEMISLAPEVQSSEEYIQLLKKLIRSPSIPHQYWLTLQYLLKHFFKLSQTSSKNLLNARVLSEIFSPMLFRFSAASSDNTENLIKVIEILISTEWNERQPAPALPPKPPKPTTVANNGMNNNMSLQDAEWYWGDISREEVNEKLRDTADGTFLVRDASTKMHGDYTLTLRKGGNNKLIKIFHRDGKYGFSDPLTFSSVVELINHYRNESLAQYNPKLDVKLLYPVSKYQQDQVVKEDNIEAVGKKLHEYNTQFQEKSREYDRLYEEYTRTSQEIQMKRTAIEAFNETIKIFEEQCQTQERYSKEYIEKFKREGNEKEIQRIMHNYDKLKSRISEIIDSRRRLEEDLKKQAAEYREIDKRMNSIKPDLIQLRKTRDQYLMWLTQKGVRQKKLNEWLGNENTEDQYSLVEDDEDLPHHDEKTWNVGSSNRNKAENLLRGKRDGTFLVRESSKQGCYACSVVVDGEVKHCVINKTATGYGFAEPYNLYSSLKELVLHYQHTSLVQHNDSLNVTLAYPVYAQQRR
Assay: PI 3-Kinase (human) HTRF assay, p110δ/p85α
Format: biochemical
Settings: read-out: PI3K δ In Vitro IC50
recorded.metric: IC50

Some compounds with recorded IC50:
> print(dat)
                                   compound                             target.system  experimental.result
1  COc1ncc(-c2ccc3ncc(C(=O)N4CCOCC4)n3c2)cc1NS(C)(=O)=O [compound 416]  p110δ/p85α (Homo sapiens (Human), UniProt O00329)           < 10000 nM
2  COc1ncc(-c2ccc3ncn(C4CCN(C)CC4)c(=O)c3c2)cc1NS(C)(=O)=O [compound 525]  p110δ/p85α (Homo sapiens (Human), UniProt O00329)             < 100 nM
3  CN1CCC(n2cnc3ccc(-c4cnc(Cl)c(NS(=O)(=O)c5ccccc5)c4)cc3c2=O)CC1 [compound 527]  p110δ/p85α (Homo sapiens (Human), UniProt O00329)             < 100 nM
4  Nc1nc2ccc(-c3cc(F)c4oc(N)nc4c3)cc2o1 [compound 433]  p110δ/p85α (Homo sapiens (Human), UniProt O00329)           < 10000 nM
5  CC(=O)Nc1nc2ccc(-c3cc(F)c4oc(N)nc4c3)cc2s1 [compound 434]  p110δ/p85α (Homo sapiens (Human), UniProt O00329)             < 100 nM
6  C[C@@H]1CN(C2CN(C(=O)c3cnc4ccc(-c5ccc6oc(N)nc6c5)cn34)C2)CCN1C [compound 508]  p110δ/p85α (Homo sapiens (Human), UniProt O00329)            < 1000 nM

Incoming: Lab request: please report IC50 under test system p110δ/p85α (Homo sapiens (Human), UniProt O00329) for Nc1nc2cc(-c3ccc4ncc(C(=O)N5C6CCC5COC6)n4c3)ccc2o1 [compound 480]
Outgoing: < 10000 nM

Incoming: Lab request: please report IC50 under test system p110δ/p85α (Homo sapiens (Human), UniProt O00329) for Nc1nc2cc(-c3ccc4ncc(C(=O)N5CC(N6CCC(F)(F)C6)C5)n4c3)ccc2o1 [compound 502]
Outgoing: < 10000 nM

Incoming: Lab request: please report IC50 under test system p110δ/p85α (Homo sapiens (Human), UniProt O00329) for COc1ccc(-c2ccc3ncc(C(=O)N4CCOCC4)n3c2)cc1NS(=O)(=O)c1cccnc1 [compound 462]
Outgoing: < 100 nM

Incoming: Lab request: please report IC50 under test system p110δ/p85α (Homo sapiens (Human), UniProt O00329) for COc1ncc(-c2ccc3ncn(C4CCN(C(C)C)CC4)c(=O)c3c2)cc1NS(=O)(=O)c1ccccc1 [compound 522]
Outgoing: < 100 nM

---

Target: p110α/p85α (Homo sapiens (Human))
Test: PI 3-Kinase (human) HTRF assay, p110α/p85α
Format: biochemical
Conditions: read-out: PI3K α In Vitro IC50
recorded.metric: IC50

Some molecules with recorded IC50:
> print(dat)
                                   molecule  experimental.result
1  O=C(c1cnc2ccc(-c3cnc(Cl)c4[nH]ncc34)cn12)N1CCOCC1            < 1000 nM
2  Cc1cc(-c2ccc3oc(N)nc3c2)cn2c(C(=O)N3CCOCC3)cnc12            < 1000 nM
3      Nc1nc2cc(-c3cc(F)c4oc(N)nc4c3)ccc2o1           < 10000 nM
4  CC1(C)CN(C2CN(C(=O)c3cnc4ccc(-c5ccc6oc(N)nc6c5)cn34)C2)CCN1             < 100 nM
5  Nc1nc2cc(-c3ccc4ncc(C(=O)N5CCOCC5)n4c3)cnc2o1             < 100 nM
6  Nc1nc2cc(-c3ccc4ncc(N5CCNC(C(F)F)C5)nc4c3)ccc2o1 (centres unmarked)             < 100 nM
7  Nc1nc2cc(-c3ccc4ncc(C(=O)N5CCn6cncc6C5)n4c3)ccc2o1             < 100 nM
8  CN1CCN(n2cnc3ccc(-c4ccc5oc(N)nc5c4)cc3c2=O)CC1            < 1000 nM

Incoming: Reported IC50, molecule COc1ncc(-c2ccc3ncc(C(=O)N4CCOCC4)n3c2)cc1NS(=O)(=O)c1ccccc1 : ____
Outgoing: < 100 nM

Incoming: Reported IC50, molecule C[C@H]1CN(C2CN(C(=O)c3cnc4ccc(-c5ccc6oc(N)nc6c5)cn34)C2)CCN1 : ____
Outgoing: < 100 nM

Incoming: Reported IC50, molecule Nc1nc2ccc(-c3cc(F)c4oc(N)nc4c3)cc2o1 : ____
Outgoing: < 1000 nM

Incoming: Reported IC50, molecule C[C@H]1CN(c2cc3cc(-c4ccc5oc(N)nc5c4)ccc3nc2N)CCN1 : ____
Outgoing: < 10000 nM

Incoming: Reported IC50, molecule Nc1nc2cc(-c3ccc4ncc(C(=O)N5CC[C@@H](F)C5)n4c3)ccc2o1 : ____
Outgoing: < 100 nM

---

Target: p110γ (Homo sapiens (Human))
Sequence (P48736 whole entry): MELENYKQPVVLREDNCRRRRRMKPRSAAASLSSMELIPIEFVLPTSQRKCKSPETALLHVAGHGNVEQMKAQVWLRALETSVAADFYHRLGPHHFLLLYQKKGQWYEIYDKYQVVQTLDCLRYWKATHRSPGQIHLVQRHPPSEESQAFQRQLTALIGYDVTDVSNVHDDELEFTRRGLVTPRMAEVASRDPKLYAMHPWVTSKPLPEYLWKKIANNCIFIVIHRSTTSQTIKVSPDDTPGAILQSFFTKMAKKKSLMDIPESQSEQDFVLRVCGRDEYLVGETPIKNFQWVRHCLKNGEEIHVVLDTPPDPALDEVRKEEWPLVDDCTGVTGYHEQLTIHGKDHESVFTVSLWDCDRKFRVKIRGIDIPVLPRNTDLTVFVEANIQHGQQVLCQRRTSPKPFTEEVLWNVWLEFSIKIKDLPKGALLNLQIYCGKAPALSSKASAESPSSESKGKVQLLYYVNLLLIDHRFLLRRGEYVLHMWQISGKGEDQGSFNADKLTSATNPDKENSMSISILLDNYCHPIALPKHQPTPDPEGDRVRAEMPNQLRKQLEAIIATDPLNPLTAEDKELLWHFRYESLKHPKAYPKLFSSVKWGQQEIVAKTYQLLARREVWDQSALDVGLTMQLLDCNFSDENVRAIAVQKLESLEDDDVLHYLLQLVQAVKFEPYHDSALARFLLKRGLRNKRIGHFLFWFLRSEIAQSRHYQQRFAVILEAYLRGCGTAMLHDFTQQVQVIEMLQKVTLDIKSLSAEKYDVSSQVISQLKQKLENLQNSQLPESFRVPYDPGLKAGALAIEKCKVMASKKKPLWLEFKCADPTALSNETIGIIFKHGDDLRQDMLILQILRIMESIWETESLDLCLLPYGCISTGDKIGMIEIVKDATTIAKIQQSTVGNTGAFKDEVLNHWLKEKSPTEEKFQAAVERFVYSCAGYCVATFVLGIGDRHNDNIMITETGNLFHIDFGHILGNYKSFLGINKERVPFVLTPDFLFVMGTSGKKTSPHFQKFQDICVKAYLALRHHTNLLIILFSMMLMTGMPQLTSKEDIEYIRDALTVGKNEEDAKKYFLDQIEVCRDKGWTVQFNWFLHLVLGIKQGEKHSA
Experiment: PI 3-Kinase (human) HTRF assay, p110γ
Type: biochemical
Conditions: read-out: PI3K γ In Vitro IC50
pIC50: −log10 of the molar value.
recorded.metric: pIC50

> print(dat)
                                    compound                 target.system  recorded.metric  experimental.result
 1  COc1ncc(-c2ccc3ncn(C4CCN(C)CC4)c(=O)c3c2)cc1NS(C)(=O)=O  p110γ (Homo sapiens (Human))            pIC50               > 5.00
 2  Nc1nc2cc(-c3ccc4ncc(C(=O)N5CCC(F)(F)C5)n4c3)ccc2o1  p110γ (Homo sapiens (Human))            pIC50               > 7.00
 3  O=C(c1cnc2ccc(-c3cnc(Cl)c(NS(=O)(=O)c4ccc(F)cc4)c3)cn12)N1CCOCC1  p110γ (Homo sapiens (Human))            pIC50               > 7.00
 4  O=C(c1cnc2ccc(-c3cncc(NS(=O)(=O)c4ccc(F)cc4F)c3)cn12)N1CCOCC1  p110γ (Homo sapiens (Human))            pIC50               > 7.00
 5  O=C(c1cnc2ccc(-c3cnc(Cl)c(NS(=O)(=O)c4ccc(F)cc4F)c3)cn12)N1CCOCC1  p110γ (Homo sapiens (Human))            pIC50               > 7.00
 6  Nc1nc2cc(-c3ccc4ncc(C(=O)N5CCC(N6CCC(F)(F)C6)C5)n4c3)ccc2o1 (centres unmarked)  p110γ (Homo sapiens (Human))            pIC50               > 5.00
 7  Nc1nc2cc(-c3ccc4ncc(C(=O)N5CC(N6CC[C@@H](O)C6)C5)n4c3)ccc2o1  p110γ (Homo sapiens (Human))            pIC50               > 6.00
 8  CC(Oc1nc(-c2ccc3ncc(C(=O)N4CCOCC4)n3c2)cnc1N)C(F)(F)F (centres unmarked)  p110γ (Homo sapiens (Human))            pIC50               > 6.00
 9  Nc1nc2cc(-c3ccc4ncc(C(=O)N5CC(n6cccn6)C5)n4c3)ccc2o1  p110γ (Homo sapiens (Human))            pIC50               > 6.00
10  CC(C)N1CCC(n2cnc3ccc(-c4cnc(Cl)c(NS(=O)(=O)c5ccccc5)c4)cc3c2=O)CC1  p110γ (Homo sapiens (Human))            pIC50               > 6.00

Incoming: Reported pIC50, compound COc1ncc(-c2ccc3ncc(C(=O)N4CCOCC4)n3c2)cc1NS(=O)(=O)c1ccccc1 : ____
Outgoing: > 6.00

Incoming: Reported pIC50, compound Nc1nc2ccc(-c3cc(F)c4oc(N)nc4c3)cc2o1 : ____
Outgoing: > 7.00

Incoming: Reported pIC50, compound O=C(c1cnc2ccc(-c3cnc4[nH]ncc4c3)cn12)N1CCOCC1 : ____
Outgoing: > 5.00

Incoming: Reported pIC50, compound CN(C(=O)c1cnc2ccc(-c3ccc4oc(N)nc4c3)cn12)C1CCOCC1 : ____
Outgoing: > 6.00

---

Target: p110α/p85α (Homo sapiens (Human), UniProt P42336)
Sequence (P42336 whole entry): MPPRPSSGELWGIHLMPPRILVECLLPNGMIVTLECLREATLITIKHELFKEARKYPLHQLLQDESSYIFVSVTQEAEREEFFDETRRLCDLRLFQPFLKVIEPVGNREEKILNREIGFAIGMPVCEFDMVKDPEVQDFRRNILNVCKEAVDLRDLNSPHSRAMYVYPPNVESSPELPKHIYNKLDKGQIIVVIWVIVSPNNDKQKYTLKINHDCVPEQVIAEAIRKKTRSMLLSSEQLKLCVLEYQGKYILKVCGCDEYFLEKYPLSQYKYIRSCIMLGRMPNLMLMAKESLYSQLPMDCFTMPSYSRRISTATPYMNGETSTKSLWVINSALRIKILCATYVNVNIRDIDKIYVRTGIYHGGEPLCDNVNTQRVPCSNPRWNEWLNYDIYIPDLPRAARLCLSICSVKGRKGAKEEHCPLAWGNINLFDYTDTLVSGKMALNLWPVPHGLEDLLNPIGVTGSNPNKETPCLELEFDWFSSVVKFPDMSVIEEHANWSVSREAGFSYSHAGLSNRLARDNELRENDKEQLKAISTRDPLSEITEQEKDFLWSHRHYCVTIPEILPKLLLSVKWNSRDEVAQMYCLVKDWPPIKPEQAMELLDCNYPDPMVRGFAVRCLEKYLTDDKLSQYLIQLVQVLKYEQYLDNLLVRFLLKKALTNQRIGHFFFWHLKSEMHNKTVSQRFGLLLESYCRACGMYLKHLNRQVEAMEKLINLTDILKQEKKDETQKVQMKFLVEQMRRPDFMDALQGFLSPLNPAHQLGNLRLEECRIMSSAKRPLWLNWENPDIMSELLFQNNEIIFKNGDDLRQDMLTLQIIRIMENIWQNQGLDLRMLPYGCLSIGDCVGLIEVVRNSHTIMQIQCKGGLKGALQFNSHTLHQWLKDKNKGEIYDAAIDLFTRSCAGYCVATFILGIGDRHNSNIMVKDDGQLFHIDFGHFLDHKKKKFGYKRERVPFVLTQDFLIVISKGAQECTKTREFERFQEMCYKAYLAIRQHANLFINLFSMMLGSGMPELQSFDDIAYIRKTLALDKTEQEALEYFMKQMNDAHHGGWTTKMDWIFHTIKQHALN
Sequence (P27986 whole entry partner): as the sequence (P27986 whole entry partner) above
Test: PI 3-Kinase (human) HTRF assay, p110α/p85α
Format: biochemical
Details: read-out: PI3K α In Vitro IC50
Overview of recorded IC50 for various compounds

Some compounds with recorded IC50:
> print(dat)
                               input.smiles                             target.system  experimental.result
1  CC(=O)Nc1n[nH]c2cc(-c3ccc4oc(N)nc4c3)ccc12  p110α/p85α (Homo sapiens (Human), UniProt P42336)           < 10000 nM
2  O=C(c1cnc2ccc(-c3cccc(NS(=O)(=O)c4ccccc4)c3)cn12)N1CCOCC1  p110α/p85α (Homo sapiens (Human), UniProt P42336)           < 10000 nM
3  Nc1nc2cc(-c3ccc4ncc(C(=O)N5CC(F)(F)C5)n4c3)ccc2o1  p110α/p85α (Homo sapiens (Human), UniProt P42336)             < 100 nM

Incoming: Reported IC50, compound Nc1nc2cc(-c3ccc4ncc(C(=O)N5CC[C@H](n6cccn6)C5)n4c3)ccc2o1 : ____
Outgoing: < 100 nM

Incoming: Reported IC50, compound COc1ncc(-c2ccc3ncc(C(=O)N4CCOCC4)n3c2)cc1N : ____
Outgoing: < 10000 nM

Incoming: Reported IC50, compound CC(C)N1CCC(n2cnc3ccc(-c4cnc(Cl)c(NS(=O)(=O)c5ccccc5)c4)cc3c2=O)CC1 : ____
Outgoing: < 100 nM

Incoming: Reported IC50, compound COc1ncc(-c2ccc3ncc(C(=O)N4CCOCC4)n3c2)cc1NS(=O)(=O)c1ccccc1F : ____
Outgoing: < 100 nM

Incoming: Reported IC50, compound O=C(c1cnc2ccc(-c3cnc(Cl)c(NS(=O)(=O)c4ccccc4F)c3)cn12)N1CCOCC1 : ____
Outgoing: < 100 nM

These measurements were taken from patent US11547697B2.
